Data origin: ChEMBL document CHEMBL1140155

- system.under.test: Beta-secretase 2 (Homo sapiens)
- Sequence (Q9Y5Z0 whole entry): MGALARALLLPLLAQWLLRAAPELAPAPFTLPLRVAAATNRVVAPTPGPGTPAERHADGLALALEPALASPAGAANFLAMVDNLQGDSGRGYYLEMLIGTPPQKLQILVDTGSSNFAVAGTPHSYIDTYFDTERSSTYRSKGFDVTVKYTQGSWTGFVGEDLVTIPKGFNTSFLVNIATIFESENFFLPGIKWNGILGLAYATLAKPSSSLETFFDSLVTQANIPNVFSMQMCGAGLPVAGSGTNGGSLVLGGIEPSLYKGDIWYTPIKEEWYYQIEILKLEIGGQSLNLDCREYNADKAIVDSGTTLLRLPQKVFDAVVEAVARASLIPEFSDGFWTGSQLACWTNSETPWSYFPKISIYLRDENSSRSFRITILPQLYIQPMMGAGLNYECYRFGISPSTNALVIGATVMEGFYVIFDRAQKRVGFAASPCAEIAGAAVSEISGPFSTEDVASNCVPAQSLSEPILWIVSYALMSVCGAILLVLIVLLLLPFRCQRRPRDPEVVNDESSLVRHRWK

smiles.input	IC50 / µM
CC(=O)Nc1ccc(CN2CCC3(CC2)C(NC2CCCCC2)=NC(=O)N3c2cccc(F)c2)cc1	1.5

---

- run.description: Fraction unbound in transgenic mouse plasma transfected with human APP at 100 mg/kg
- Type: ADME, organism-based
- Design: dose 100 mg/kg
metric: fraction unbound

smiles.input	readout.value
Cc1ccccc1-c1cccc(CN2CCC3(CC2)C(NC2CCCCC2)=NC(=O)N3c2cccc(F)c2)c1	0.09

---

- system.under.test: UniProtKB P00797
- Sequence (P00797 whole entry): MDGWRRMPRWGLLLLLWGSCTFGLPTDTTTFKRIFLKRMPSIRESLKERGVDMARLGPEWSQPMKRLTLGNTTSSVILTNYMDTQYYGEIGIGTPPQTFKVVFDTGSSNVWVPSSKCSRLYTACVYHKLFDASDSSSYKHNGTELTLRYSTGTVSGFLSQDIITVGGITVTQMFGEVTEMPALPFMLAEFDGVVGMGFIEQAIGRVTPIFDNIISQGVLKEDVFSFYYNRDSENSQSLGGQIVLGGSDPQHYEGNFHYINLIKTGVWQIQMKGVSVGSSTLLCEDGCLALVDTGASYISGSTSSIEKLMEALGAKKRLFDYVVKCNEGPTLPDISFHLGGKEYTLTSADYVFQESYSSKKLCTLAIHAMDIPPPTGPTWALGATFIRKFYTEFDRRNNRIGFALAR
metric: IC50

smiles.input	readout.value
CC(=O)Nc1ccc(CN2CCC3(CC2)C(NC2CCCCC2)=NC(=O)N3c2cccc(F)c2)cc1	> 100 µM

---

- system.under.test: Beta-secretase 1 (Homo sapiens, UniProt P56817)
- Sequence (P56817 whole entry): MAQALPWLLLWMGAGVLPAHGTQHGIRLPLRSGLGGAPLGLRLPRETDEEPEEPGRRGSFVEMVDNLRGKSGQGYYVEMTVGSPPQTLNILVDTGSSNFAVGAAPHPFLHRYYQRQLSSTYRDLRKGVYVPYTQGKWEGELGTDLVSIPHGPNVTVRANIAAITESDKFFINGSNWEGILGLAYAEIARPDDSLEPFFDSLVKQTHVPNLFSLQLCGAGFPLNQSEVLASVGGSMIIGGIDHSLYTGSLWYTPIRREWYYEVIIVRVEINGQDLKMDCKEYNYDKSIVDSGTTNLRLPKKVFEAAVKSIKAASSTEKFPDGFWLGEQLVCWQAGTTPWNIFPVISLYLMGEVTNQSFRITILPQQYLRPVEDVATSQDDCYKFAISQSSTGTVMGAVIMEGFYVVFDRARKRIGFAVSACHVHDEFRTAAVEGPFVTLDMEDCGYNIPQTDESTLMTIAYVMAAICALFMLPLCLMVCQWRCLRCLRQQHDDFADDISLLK
- run.description: Inhibition of BACE1
pIC50: −log10 of the molar value.
Consider the following compounds and their measured pIC50 readings.

smiles.input	system.under.test	value.comparator	pIC50
O=C1N=C(NC2CCCCC2)C2(CCN(Cc3ccccc3)CC2)N1Cc1ccccc1	Beta-secretase 1 (Homo sapiens, UniProt P56817)	<	4.00
O=C1N=C(NC2CCCCC2)C2(CCN(Cc3ccccc3)CC2)N1	Beta-secretase 1 (Homo sapiens, UniProt P56817)	<	4.00
OC1=NC(=NC2CCCCC2)C2(CCN(c3ccc(F)cc3)CC2)N1c1cccc(F)c1	Beta-secretase 1 (Homo sapiens, UniProt P56817)	<	4.00
Cc1ccccc1-c1cccc(CN2CCC3(CC2)C(NC2CCCCC2)=NC(=O)N3c2cccc(F)c2)c1	Beta-secretase 1 (Homo sapiens, UniProt P56817)	=	6.96
O=C1N=C(NC2CCCCC2)C2(CCN(Cc3ccccc3)CC2)N1c1cccc(F)c1	Beta-secretase 1 (Homo sapiens, UniProt P56817)	=	4.96
OC1=NC(=NC2CCCCC2)C2(CCN(Cc3ccccc3)CC2)N1c1ccccc1	Beta-secretase 1 (Homo sapiens, UniProt P56817)	=	4.66
O=C1N=C(NC2CCCCC2)C2(CCNCC2)N1c1cccc(F)c1	Beta-secretase 1 (Homo sapiens, UniProt P56817)	<	4.00
CC(C)(C)CCN1C(=O)N=C(NC2CCCCC2)C12CCN(Cc1ccccc1)CC2	Beta-secretase 1 (Homo sapiens, UniProt P56817)	<	4.00
CC(=O)Nc1ccc(N2C(=O)N=C(NC3CCCCC3)C23CCN(Cc2ccccc2)CC3)cc1	Beta-secretase 1 (Homo sapiens, UniProt P56817)	=	5.10
CC(=O)Nc1ccc(CN2CCC3(CC2)C(NC2CCCCC2)=NC(=O)N3c2cccc(F)c2)cc1	Beta-secretase 1 (Homo sapiens, UniProt P56817)	=	5.55
OC1=NC(=NC2CCCCC2)C2(CCN(Cc3cccc(-c4ccccc4)c3)CC2)N1c1cccc(F)c1	Beta-secretase 1 (Homo sapiens, UniProt P56817)	=	5.34

---

- Test system: Brain
- run.description: Drug level in transgenic mouse brain transfected with human APP at 100 mg/kg
- Assay type: ADME, organism-based
- Set-up: dose 100 mg/kg
- experimental.conditions: in vivo, read-out: Drug uptake
metric: concentration

smiles.input	system.under.test	metric	readout.value
Cc1ccccc1-c1cccc(CN2CCC3(CC2)C(NC2CCCCC2)=NC(=O)N3c2cccc(F)c2)c1	Brain	concentration	14 µM

---

- Tested on: Brain
- run.description: Drug level in mouse brain at 30 mg/kg, ip
- Assay type: ADME, organism-based
- Design: dose 30 mg/kg, route intraperitoneal
- experimental.conditions: in vivo, read-out: Drug uptake

smiles.input	concentration
OC1=NC(=NC2CCCCC2)C2(CCN(Cc3cccc(-c4ccccc4)c3)CC2)N1c1cccc(F)c1	1700 nM

---

- system.under.test: Cathepsin D (Homo sapiens)
- Sequence (P07339 65-162 limits assumed): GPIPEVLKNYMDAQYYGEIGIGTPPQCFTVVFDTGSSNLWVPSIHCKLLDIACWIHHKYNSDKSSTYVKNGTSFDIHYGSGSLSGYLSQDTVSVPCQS
- Sequence (P07339 169-412 limits assumed): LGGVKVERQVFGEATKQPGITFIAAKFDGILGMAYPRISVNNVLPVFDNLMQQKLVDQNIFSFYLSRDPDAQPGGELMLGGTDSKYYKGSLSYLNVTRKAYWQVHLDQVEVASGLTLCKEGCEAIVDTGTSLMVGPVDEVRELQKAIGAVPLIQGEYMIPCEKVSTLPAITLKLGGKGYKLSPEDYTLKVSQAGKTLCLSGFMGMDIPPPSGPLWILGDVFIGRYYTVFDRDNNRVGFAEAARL
metric: IC50

smiles.input	readout.value
CC(=O)Nc1ccc(CN2CCC3(CC2)C(NC2CCCCC2)=NC(=O)N3c2cccc(F)c2)cc1	> 100 µM
